Values from ChEMBL document CHEMBL1131380

Catalogue of pEC50 values
- System: HL-60
- TEST_DETAILS: Effective concentration against monocytes of HL-60 cells growth inhibition
- Assay type: functional, cell-based
- TEST_CONDITIONS: Homo sapiens
Conceptually, pEC50 converts a concentration in mol/L into minus its log10.

C=C[C@@]1(C)CC[C@](C)(C(C)C)c2cc3c4c(c[nH]c4c21)C[C@@H](CO)NC(=O)[C@H](C(C)C)N3C : 8.30

Attention now shifts to the item below.
GET /values?readout=pEC50&item= CC(C)[C@H]1C(=O)N[C@H](CO)Cc2c[nH]c3cccc(c23)N1C [INDOLACTUM] 8.30
